Quick reference for CC50 among some compounds
# Test system: MDBK
# Protocol summary: Cytotoxicity assay, MDBK cell line

Compound	CC50
COC1C(OP(=O)(OCC2OC(n3cnc4c(N)ncnc43)CC2O)SCc2ccc(NC(C)=O)cc2)C(CO)OC1n1ccc(=O)[nH]c1=O (mixture of isomers)	> 1000 µM
COC1C(OP(=O)(OCC2OC(n3cnc4c(N)ncnc43)CC2O)SCCCCNC(=O)c2cccnc2)C(CO)OC1n1ccc(=O)[nH]c1=O (mixture of isomers)	> 1000 µM
COC1C(OP(=O)(OCC2OC(n3cnc4c(N)ncnc43)CC2O)SCCCCOC(=O)c2ccccc2)C(CO)OC1n1ccc(=O)[nH]c1=O (mixture of isomers)	> 1000 µM
COC1C(OP(=O)(OCC2OC(n3cnc4c(N)ncnc43)CC2O)SCCCCNC(=O)c2ccccc2)C(CO)OC1n1ccc(=O)[nH]c1=O (mixture of isomers)	> 1000 µM
COC1C(OP(=O)(OCC2OC(n3cnc4c(N)ncnc43)CC2O)SCCCCOC(=O)c2cccnc2)C(CO)OC1n1ccc(=O)[nH]c1=O (mixture of isomers)	> 1000 µM
COC1C(OP(=O)(OCC2OC(n3cnc4c(N)ncnc43)CC2O)SCc2ccc(OC(=O)C(C)C)cc2)C(CO)OC1n1ccc(=O)[nH]c1=O (mixture of isomers)	> 1000 µM
